Source of measurements: patent US8088791B2

test system: Staphylococcus aureus ATCC29213; test: Minimum Inhibitory Concentration (MIC) testing, broth microdilution, Staphylococcus aureus; assay type: cell-based; conditions: Staphylococcus aureus ATCC29213; read-out: Staphylococcus aureus MICs Activity
assay readout: MIC

>>> observed("COc1ccc(-c2coc(COc3ccc(F)c(C(N)=O)c3F)n2)cc1 [Example 311]")
"< 8 µg/mL"
>>> observed("CCCCCCCCCOc1cc(C(N)=O)ccn1 [Example 94, 2-(Nonyloxy)isonicotinamide]")
"< 8 µg/mL"
>>> observed("CC(C)c1ccc(-c2noc(COc3ccc(F)c(C(N)=O)c3F)n2)cc1 [Example 248]")
"< 8 µg/mL"
>>> observed("CC(C)(C)c1ccc2oc(COc3ccc(F)c(C(N)=O)c3F)nc2c1 [Example 213]")
"16 to 64 µg/mL"
>>> observed("NC(=O)c1c(F)ccc(OCc2nc3cc(C(F)(F)F)ccc3s2)c1F [Example 217]")
"< 8 µg/mL"
>>> observed("COc1ccc(-c2nc(COc3ccc(F)c(C(N)=O)c3F)sc2-c2cccnc2)cc1 [Example 121]")
"< 8 µg/mL"
>>> observed("CCCCCC/C=C\\COc1cccc(C(N)=O)c1 [Example 47, 3-[(Z)-2-Nonenyloxy]benzenecarboxamide]")
"16 to 64 µg/mL"
>>> observed("CC(=O)Oc1cccc(COc2cccc(C(N)=O)c2)c1 [Example 172]")
"> 64 µg/mL"
>>> observed("N#Cc1ccc(-c2csc(COc3ccc(F)c(C(N)=O)c3F)n2)cc1 [Example 276]")
"< 8 µg/mL"
>>> observed("COc1ccc(-c2nc(COc3ccc(F)c(C(N)=O)c3F)sc2-c2ccccc2OC)cc1 [Example 280]")
"< 8 µg/mL"
